Measured Kd (cAMP-dependent protein kinase catalytic subunit gamma (Homo sapiens, UniProt P22612))
Active and inactive are the calls of the source.

MOLECULE | RESULT
CN(C)C/C=C/C(=O)Nc1cc2c(Nc3ccc(F)c(Cl)c3)ncnc2cc1O[C@H]1CCOC1 [AFATINIB] | > 30 µM (inactive)
Cc1cc(C(=O)Nc2cc(Oc3ccc4nc(NC(=O)C5CC5)cn4n3)ccc2C)n(C)n1 [TAK-593] | > 30 µM (inactive)
CNC(=O)c1cc(COc2nnc(Nc3ccc(Cl)cc3)c3ccoc23)ccn1 [TELATINIB] | > 30 µM (inactive)

Would you kindly look at the next entry?
Recorded Kd for NC(=O)c1ccc(N(C(N)=O)c2c(F)cccc2F)nc1-c1ccc(F)cc1F [VX-702] with cAMP-dependent protein kinase catalytic subunit gamma (Homo sapiens, UniProt P22612), please?
> 30 µM (inactive)

---

biological target: UniProtKB Q9NYV4
Sequence (Q9NYV4 whole entry): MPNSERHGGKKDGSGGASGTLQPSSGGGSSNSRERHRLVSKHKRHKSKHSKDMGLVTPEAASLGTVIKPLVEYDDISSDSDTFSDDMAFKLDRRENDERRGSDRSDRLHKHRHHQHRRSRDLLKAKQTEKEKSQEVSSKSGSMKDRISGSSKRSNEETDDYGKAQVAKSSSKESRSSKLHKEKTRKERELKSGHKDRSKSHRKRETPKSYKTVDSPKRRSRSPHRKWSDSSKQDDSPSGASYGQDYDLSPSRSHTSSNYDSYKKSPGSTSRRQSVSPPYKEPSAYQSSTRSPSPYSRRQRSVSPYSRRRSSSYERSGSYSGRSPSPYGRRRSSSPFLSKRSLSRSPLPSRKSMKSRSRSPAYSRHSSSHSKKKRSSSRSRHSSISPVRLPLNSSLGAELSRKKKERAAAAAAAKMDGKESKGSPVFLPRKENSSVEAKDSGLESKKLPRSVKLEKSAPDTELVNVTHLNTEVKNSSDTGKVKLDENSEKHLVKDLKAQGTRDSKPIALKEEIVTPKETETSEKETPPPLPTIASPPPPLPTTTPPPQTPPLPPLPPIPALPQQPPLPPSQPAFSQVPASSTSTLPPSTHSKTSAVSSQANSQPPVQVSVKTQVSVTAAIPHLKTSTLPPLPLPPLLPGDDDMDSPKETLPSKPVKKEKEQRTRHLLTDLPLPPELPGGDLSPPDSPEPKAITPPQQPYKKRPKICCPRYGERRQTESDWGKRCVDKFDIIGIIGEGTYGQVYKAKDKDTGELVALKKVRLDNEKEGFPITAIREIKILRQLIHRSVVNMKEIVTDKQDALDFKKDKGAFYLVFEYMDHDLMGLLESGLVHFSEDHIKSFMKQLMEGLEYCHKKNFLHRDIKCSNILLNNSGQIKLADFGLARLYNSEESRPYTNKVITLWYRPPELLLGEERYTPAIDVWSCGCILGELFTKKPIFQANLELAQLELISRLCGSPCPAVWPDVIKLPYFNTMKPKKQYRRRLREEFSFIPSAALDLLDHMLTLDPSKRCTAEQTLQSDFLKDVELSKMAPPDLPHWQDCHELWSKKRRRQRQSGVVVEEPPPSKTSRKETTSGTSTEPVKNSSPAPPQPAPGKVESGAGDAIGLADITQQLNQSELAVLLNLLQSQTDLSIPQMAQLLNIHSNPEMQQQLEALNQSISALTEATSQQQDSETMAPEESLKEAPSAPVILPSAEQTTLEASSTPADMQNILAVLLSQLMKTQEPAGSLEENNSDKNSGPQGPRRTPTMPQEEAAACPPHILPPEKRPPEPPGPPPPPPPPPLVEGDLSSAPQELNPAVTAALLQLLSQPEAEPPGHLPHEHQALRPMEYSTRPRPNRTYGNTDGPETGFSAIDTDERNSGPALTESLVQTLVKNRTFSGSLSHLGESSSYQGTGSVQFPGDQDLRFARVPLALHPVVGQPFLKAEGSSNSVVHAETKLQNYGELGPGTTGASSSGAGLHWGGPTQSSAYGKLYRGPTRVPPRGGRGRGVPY
Activity calls are given as the source filed them.
Hi! Could you answer with just one of these? active, inactive

For C=CC(=O)Nc1cc(Nc2nccc(-c3cn(C)c4ccccc34)n2)c(OC)cc1N(C)CCN(C)C [OSIMERTINIB] , what call appears in the results of this test?
inactive

For CNC(=O)c1cc(COc2nnc(Nc3ccc(Cl)cc3)c3ccoc23)ccn1 [TELATINIB] , what call appears in the results of this test?
inactive

For O=C(NC[C@H](O)CO)c1ccncc1Nc1ccc(I)cc1F [PIMASERTIB] , what call appears in the results of this test?
inactive

For CC1(C)CNc2cc(NC(=O)c3cccnc3NCc3ccncc3)ccc21 [MOTESANIB] , what call appears in the results of this test?
inactive

For COc1ccc(-c2ccc3ncc4c(c3c2)n(-c2ccc(N3CCNCC3)c(C(F)(F)F)c2)c(=O)n4C)cn1 [BGT-226 FREE BASE] , what call appears in the results of this test?
inactive

---

target: Tyrosine-protein kinase Tec (Homo sapiens, UniProt P42680); also: in the data inactive means no Kd found up to 30 µM
Sequence (P42680 whole entry): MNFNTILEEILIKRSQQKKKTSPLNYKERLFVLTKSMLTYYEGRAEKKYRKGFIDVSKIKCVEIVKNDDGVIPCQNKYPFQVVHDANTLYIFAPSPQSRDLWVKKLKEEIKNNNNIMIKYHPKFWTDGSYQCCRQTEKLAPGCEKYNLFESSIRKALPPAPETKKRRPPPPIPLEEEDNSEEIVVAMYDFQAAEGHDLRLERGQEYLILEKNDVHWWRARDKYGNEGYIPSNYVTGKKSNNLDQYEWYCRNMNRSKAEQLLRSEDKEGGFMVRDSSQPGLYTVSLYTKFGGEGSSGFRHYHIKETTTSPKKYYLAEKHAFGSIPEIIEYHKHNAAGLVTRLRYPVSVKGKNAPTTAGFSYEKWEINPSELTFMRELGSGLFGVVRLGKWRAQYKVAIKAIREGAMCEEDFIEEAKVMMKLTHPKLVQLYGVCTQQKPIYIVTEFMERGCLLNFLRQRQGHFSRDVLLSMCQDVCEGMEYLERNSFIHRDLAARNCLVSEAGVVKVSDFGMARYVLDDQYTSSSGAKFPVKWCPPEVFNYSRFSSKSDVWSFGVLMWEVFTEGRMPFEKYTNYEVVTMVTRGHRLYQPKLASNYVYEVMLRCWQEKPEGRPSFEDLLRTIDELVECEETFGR
Activity calls are given as the source filed them.
Hi! Could you answer with just one of these? active, inactive

COMPOUND | CLASSIFICATION
COc1cc(F)c(F)c(Nc2ccc(I)cc2F)c1NS(=O)(=O)C1(C[C@H](O)CO)CC1 | inactive
COc1cccc2cc(-c3nc([C@H]4CC[C@H](C(=O)O)CC4)n4ncnc(N)c34)[nH]c12 | inactive
CCc1cc2c(cc1N1CCC(N3CCOCC3)CC1)C(C)(C)c1[nH]c3cc(C#N)ccc3c1C2=O | inactive
COc1cc2ncnc3c2cc1OCCCCCN(C)Cc1ccc(Br)cc1N3 | inactive

For NC[C@@](O)(c1ccc(Cl)cc1)c1ccc(-c2cn[nH]c2)cc1 , what call appears in the results of this test?
inactive

---

Measured Kd (Macrophage-stimulating protein receptor (Homo sapiens))
The source made the active and inactive calls.

Recorded Kd for O=S(=O)(c1cccc2c(O)nccc12)N1CCCNCC1 [HYDROXYFASUDIL] with Macrophage-stimulating protein receptor (Homo sapiens), please?
> 30 µM (inactive)

Recorded Kd for CCc1nc(C(N)=O)c(Nc2ccc(N3CCC(N4CCN(C)CC4)CC3)c(OC)c2)nc1NC1CCOCC1 [GILTERITINIB] with Macrophage-stimulating protein receptor (Homo sapiens), please?
0.804 µM (active)

Recorded Kd for Cn1c(=O)c(F)c(Nc2ccc(I)cc2F)c2c(=O)n(C[C@@H](O)CO)cnc21 [TAK-733] with Macrophage-stimulating protein receptor (Homo sapiens), please?
> 30 µM (inactive)

Recorded Kd for CC1(COc2ccc3c(c2)ncn3-c2ccc3cccc(N4CCC(N)CC4)c3n2)COC1 [CRENOLANIB] with Macrophage-stimulating protein receptor (Homo sapiens), please?
> 30 µM (inactive)

---

target: Serine/threonine-protein kinase/endoribonuclease IRE1 (Homo sapiens); also: in the data inactive means no Kd found up to 30 µM
Sequence (O75460 whole entry): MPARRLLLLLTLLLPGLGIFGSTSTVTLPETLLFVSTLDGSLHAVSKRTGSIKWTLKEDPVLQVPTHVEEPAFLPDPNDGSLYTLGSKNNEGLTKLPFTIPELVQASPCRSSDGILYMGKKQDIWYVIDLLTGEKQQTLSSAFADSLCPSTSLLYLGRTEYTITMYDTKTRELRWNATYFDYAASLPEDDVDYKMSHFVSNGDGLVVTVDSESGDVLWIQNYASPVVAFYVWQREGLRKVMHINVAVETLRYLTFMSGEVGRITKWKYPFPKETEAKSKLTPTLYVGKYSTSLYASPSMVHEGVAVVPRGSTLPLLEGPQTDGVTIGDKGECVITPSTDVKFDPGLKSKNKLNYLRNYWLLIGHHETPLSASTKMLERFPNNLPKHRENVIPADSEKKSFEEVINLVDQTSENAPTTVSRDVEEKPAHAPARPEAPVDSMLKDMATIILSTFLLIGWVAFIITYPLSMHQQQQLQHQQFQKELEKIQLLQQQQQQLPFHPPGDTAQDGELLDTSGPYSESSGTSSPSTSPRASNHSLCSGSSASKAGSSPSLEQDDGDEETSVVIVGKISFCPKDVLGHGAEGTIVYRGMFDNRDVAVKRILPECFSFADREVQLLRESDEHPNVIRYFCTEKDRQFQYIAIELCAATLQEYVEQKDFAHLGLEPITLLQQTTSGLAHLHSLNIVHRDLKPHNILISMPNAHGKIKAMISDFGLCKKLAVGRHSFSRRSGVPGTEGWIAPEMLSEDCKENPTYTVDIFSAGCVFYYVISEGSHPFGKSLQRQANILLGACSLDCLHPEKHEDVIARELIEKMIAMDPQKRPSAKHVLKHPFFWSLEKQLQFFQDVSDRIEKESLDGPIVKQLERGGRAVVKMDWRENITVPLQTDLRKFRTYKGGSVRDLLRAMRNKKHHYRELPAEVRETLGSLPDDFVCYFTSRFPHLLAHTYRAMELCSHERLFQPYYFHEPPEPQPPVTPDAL
Active and inactive are the calls of the source.
Hi! Could you answer with just one of these? active, inactive

MOLECULE | CLASSIFICATION
CC[C@@](C)(Nc1ccnc(-c2c[nH]c3ncccc23)n1)C(=O)NCC(F)(F)F | inactive
Cc1cc(C(=O)Nc2cc(Oc3ccc4nc(NC(=O)C5CC5)cn4n3)ccc2C)n(C)n1 | inactive
C=CC(=O)Nc1cc(Nc2nccc(-c3cn(C)c4ccccc34)n2)c(OC)cc1N(C)CCN(C)C | inactive
CCc1nc(C(N)=O)c(Nc2ccc(N3CCC(N4CCN(C)CC4)CC3)c(OC)c2)nc1NC1CCOCC1 | inactive
COc1cc2ncnc(Nc3ccc(O)cc3)c2cc1OC | inactive

Then this molecule:
For C#Cc1cccc(Nc2ncnc3cc4c(cc23)OCCOCCOCCO4)c1 , what call appears in the results of this test?
inactive

---

Activity calls are given as the source filed them.
Measured Kd (Casein kinase II subunit alpha' (Homo sapiens, UniProt P19784))

The following compounds have reported results that may help.
COMPOUND STRING | TARGET | Kd
Cc1cc(C(=O)Nc2cc(Oc3ccc4nc(NC(=O)C5CC5)cn4n3)ccc2C)n(C)n1 | Casein kinase II subunit alpha' (Homo sapiens, UniProt P19784) | > 30 µM (inactive)
O=C(NOC[C@H](O)CO)c1ccc(F)c(F)c1Nc1ccc(I)cc1F | Casein kinase II subunit alpha' (Homo sapiens, UniProt P19784) | > 30 µM (inactive)
c1cc(OCCN2CCCCC2)cc(-c2n[nH]c3ccc(-c4nc[nH]n4)cc23)c1 | Casein kinase II subunit alpha' (Homo sapiens, UniProt P19784) | 0.584 µM (active)
CCN1CCN(Cc2ccc(Nc3ncc(F)c(-c4cc(F)c5nc(C)n(C(C)C)c5c4)n3)nc2)CC1 | Casein kinase II subunit alpha' (Homo sapiens, UniProt P19784) | 0.019 µM (active)
CCN(CCCOc1ccc2c(Nc3cc(CC(=O)Nc4cccc(F)c4)n[nH]3)ncnc2c1)CCOP(=O)(O)O | Casein kinase II subunit alpha' (Homo sapiens, UniProt P19784) | 1.95 µM
NC[C@@](O)(c1ccc(Cl)cc1)c1ccc(-c2cn[nH]c2)cc1 | Casein kinase II subunit alpha' (Homo sapiens, UniProt P19784) | > 30 µM (inactive)

Recorded Kd for Cn1cc(-c2[nH]c3cc(NC(=O)[C@H](N)C4CCCCC4)cc4c3c2C=NNC4=O)cn1 with Casein kinase II subunit alpha' (Homo sapiens, UniProt P19784), please?
14.8 µM (active)

Recorded Kd for S=C(NCc1ccc2c(c1)OCO2)N1CCN(c2ncnc3c2oc2ccccc23)CC1 with Casein kinase II subunit alpha' (Homo sapiens, UniProt P19784), please?
> 30 µM (inactive)

---

biological target: Serine/threonine-protein kinase/endoribonuclease IRE2 (Homo sapiens); also: in the data inactive means no Kd found up to 30 µM
Sequence (Q76MJ5 whole entry): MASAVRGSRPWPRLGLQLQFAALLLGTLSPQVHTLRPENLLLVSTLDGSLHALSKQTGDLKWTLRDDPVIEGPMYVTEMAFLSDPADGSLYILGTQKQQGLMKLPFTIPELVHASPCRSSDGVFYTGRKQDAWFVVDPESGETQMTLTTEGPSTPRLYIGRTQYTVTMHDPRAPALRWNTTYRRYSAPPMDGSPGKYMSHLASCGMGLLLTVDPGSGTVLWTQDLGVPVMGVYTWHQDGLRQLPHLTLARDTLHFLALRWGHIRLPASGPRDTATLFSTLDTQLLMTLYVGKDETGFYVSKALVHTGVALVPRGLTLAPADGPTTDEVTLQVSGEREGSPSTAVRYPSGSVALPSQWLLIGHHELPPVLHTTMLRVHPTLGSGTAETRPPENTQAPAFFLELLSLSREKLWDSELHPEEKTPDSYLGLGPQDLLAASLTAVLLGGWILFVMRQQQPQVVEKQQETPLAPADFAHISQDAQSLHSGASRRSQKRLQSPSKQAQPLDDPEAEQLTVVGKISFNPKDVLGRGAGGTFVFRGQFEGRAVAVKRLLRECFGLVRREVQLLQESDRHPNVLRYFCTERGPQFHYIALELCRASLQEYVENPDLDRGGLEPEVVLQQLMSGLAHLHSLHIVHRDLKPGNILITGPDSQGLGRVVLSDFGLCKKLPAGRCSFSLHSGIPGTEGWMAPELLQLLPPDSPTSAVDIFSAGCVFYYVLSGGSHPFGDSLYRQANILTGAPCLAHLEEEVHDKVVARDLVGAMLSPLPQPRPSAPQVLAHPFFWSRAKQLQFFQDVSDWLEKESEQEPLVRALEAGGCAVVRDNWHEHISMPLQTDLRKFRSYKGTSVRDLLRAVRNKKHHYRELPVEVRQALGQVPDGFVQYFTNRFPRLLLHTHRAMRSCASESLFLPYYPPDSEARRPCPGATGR
Active and inactive are the calls of the source.
Parameter: Kd. Scope: all listed entries.

The following compounds have reported results that may help.
COMPOUND | RESULT
c1cc(OCCN2CCCCC2)cc(-c2n[nH]c3ccc(-c4nc[nH]n4)cc23)c1 [CC-401] | > 30 µM (inactive)
O=c1[nH]c([C@@H]2CCCN2)nc2c1oc1ccc(Cl)cc12 | > 30 µM (inactive)
N#CCNC(=O)c1ccc(-c2ccnc(Nc3ccc(N4CCOCC4)cc3)n2)cc1 [MOMELOTINIB] | > 30 µM (inactive)

Would you kindly look at the next entry?
Which Kd is listed for C=CCN(/C=C1/C(=O)O[C@H](COC)[C@@]2(C)C1=C(O)C(=O)C1=C2[C@H](OC(C)=O)C[C@]2(C)C(=O)CC[C@@H]12)CC=C [SONOLISIB] ?
> 30 µM (inactive)

---

Calls of active or inactive are those of the source.
Measured Kd (STE20-related kinase adapter protein alpha (Homo sapiens))

Recorded Kd for COc1cc2ncnc3c2cc1OCCCCCN(C)Cc1ccc(Br)cc1N3 [JNJ-26483327] with STE20-related kinase adapter protein alpha (Homo sapiens), please?
> 30 µM (inactive)

Recorded Kd for C[C@]1(O)C[C@@H](c2nc(-c3ccc4ccc(-c5ccccc5)nc4c3)c3c(N)nccn32)C1 [LINSITINIB] with STE20-related kinase adapter protein alpha (Homo sapiens), please?
> 30 µM (inactive)

---

Target: Phosphatidylinositol 5-phosphate 4-kinase type-2 gamma (Homo sapiens); also: in the data inactive means no Kd found up to 30 µM
Sequence (Q8TBX8 whole entry): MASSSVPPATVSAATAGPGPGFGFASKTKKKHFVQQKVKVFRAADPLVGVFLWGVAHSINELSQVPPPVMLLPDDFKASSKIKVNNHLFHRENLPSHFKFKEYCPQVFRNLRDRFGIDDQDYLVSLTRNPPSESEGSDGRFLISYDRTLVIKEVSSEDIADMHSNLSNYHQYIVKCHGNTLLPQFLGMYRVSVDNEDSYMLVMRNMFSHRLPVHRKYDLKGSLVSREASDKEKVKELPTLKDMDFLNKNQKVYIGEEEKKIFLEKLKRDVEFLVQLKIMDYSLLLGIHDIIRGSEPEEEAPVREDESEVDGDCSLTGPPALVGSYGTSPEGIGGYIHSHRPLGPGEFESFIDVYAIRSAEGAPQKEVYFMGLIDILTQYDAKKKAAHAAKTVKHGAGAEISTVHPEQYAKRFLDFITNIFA
Activity calls are given as the source filed them.
Hi! Could you answer with just one of these? active, inactive

Some entries whose results are on file:
COMPOUND | TARGET | CLASSIFICATION
CCOc1ccn(-c2ccc(F)cc2)c(=O)c1C(=O)Nc1ccc(Oc2ccnc(N)c2Cl)c(F)c1 | Phosphatidylinositol 5-phosphate 4-kinase type-2 gamma (Homo sapiens) | inactive
O=S(=O)(c1cccc2c(O)nccc12)N1CCCNCC1 [HYDROXYFASUDIL] | Phosphatidylinositol 5-phosphate 4-kinase type-2 gamma (Homo sapiens) | inactive
COc1cccc(Nc2ncnn3ccc(CN4CC[C@@H](N)[C@H](O)C4)c23)c1 | Phosphatidylinositol 5-phosphate 4-kinase type-2 gamma (Homo sapiens) | inactive
Cn1c(=O)n(-c2ccc(C(C)(C)C#N)cc2)c2c3cc(-c4cnc5ccccc5c4)ccc3ncc21 | Phosphatidylinositol 5-phosphate 4-kinase type-2 gamma (Homo sapiens) | inactive

For C[C@@H]1COC(Nc2ccc3ncnc(Nc4ccc(OCc5nccs5)c(Cl)c4)c3c2)=N1 , what call appears in the results of this test?
inactive

For C=CCN(/C=C1/C(=O)O[C@H](COC)[C@@]2(C)C1=C(O)C(=O)C1=C2[C@H](OC(C)=O)C[C@]2(C)C(=O)CC[C@@H]12)CC=C , what call appears in the results of this test?
inactive

For C[C@]1(O)C[C@@H](c2nc(-c3ccc4ccc(-c5ccccc5)nc4c3)c3c(N)nccn32)C1 , what call appears in the results of this test?
active

For COc1cc2ncnc(Nc3ccc(F)c(Cl)c3)c2cc1NC(=O)/C=C/CN1CCCCC1 [DACOMITINIB ANHYDROUS] , what call appears in the results of this test?
inactive

For C=CCn1c(=O)c2cnc(Nc3ccc(N4CCN(C)CC4)cc3)nc2n1-c1cccc(C(C)(C)O)n1 , what call appears in the results of this test?
inactive

For O[C@H]1CC[C@H](Nc2ncc3nc(Nc4c(F)cc(F)cc4F)n([C@H]4CCOC4)c3n2)CC1 , what call appears in the results of this test?
inactive

For O=C(NC[C@H](O)CO)c1ccncc1Nc1ccc(I)cc1F , what call appears in the results of this test?
inactive
